EXPERIMENTAL TARGET: recombinant eIF4E (Homo sapiens (Human))
Sequence (P06730 whole entry): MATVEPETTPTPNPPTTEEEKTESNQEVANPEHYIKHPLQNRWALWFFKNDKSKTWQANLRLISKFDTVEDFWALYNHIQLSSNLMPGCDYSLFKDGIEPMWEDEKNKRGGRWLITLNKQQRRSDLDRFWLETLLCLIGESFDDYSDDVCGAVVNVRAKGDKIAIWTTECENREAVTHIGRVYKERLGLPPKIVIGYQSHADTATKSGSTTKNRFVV
TEST DESCRIPTION: Fluorescence polarization competition assay for eIF4E binding potency
SETUP CONDITIONS: inhibition of eIF4E/EDA-m7GDP-ATTO-550 binding by 50%; Table 4B calculated values; read-out: IC50
pIC50: −log10 of the molar value.
MEASURE: pIC50

- SMILES REPRESENTATION: "Cc1cc(-c2cc(Cl)ccc2OCCn2c(C)nc3cc(C(F)(F)F)c(C(=O)N(C)C)c(C#N)c3c2=O)c2scc(C(=O)O)c2n1"
  pIC50: 8.05

P = Cc1cc(-c2cc(Cl)ccc2OCCn2c(C)nc3cc(Cl)c(-c4cccc(C(F)F)n4)c(C#N)c3c2=O)c2scc(C(=O)O)c2n1
Q = Cc1cc(-c2cc(Cl)ccc2OCCn2c(C)nc3cc(F)c(CN4CCN(C)CC4)c(C#N)c3c2=O)c2scc(C(=O)O)c2n1
Query: I would appreciate it if you could say which entry, P or Q , has the lower pIC50 value. API: response body contains the label of the selected item.
Result: P
(P: 7.88, Q: 8.18)
